Data provenance is patent US10407398B2.

target: LecBPA14 (Pseudomonas aeruginosa, UniProt A0A0H2ZE85); test: biochemical; format: binding, Pseudomonas aeruginosa UCBPP-PA14; settings: ITC binding stoichiometry, one site binding model, LecBPA14
Sequence (A0A0H2ZE85 entry or part of it): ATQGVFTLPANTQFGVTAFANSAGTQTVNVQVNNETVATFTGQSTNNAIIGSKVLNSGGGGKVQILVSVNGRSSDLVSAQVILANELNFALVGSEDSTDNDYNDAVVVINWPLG
testReadout: N
Response field accepts a number only; no unit should be typed.

Worked examples, 2 compounds total:
compound | testReadout | quantitativeReadout
Cc1cc(C)c(S(=O)(=O)NC[C@H]2OC(C)[C@@H](O)C(O)C2O)c(C)c1 (stereo partly shown) [drawing 119] | N | 0.98
CC1OCC(O)C(O)[C@@H]1O (stereo partly drawn) [drawing 115, 1-deoxy-L-fucose, reference compound] | N | 0.94

Incoming: Which measured N value corresponds to CCCC[C@@]1(O)C(C)OCC(O)C1O (stereo partly shown) [drawing 117] ?
Outgoing: 1.03

Incoming: Which measured N value corresponds to CC[C@@]1(O)C(C)OCC(O)C1O (stereo partly shown) [drawing 116] ?
Outgoing: 0.96

Incoming: Which measured N value corresponds to CC1O[C@H](CNS(=O)(=O)c2cccs2)C(O)C(O)[C@@H]1O (stereo partly shown) ?
Outgoing: 0.87

Incoming: Which measured N value corresponds to CC1O[C@H](CNC(=O)/C=C/c2ccccc2)C(O)C(O)[C@@H]1O (stereo partly shown) [drawing 118] ?
Outgoing: 1.07

Incoming: Which measured N value corresponds to Cc1cc(S(=O)(=O)NC[C@H]2OC(C)[C@@H](O)C(O)C2O)c(C)s1 (stereo partly shown) ?
Outgoing: 0.98

###

biological target: LecBPAO1 (Pseudomonas aeruginosa); construct: made in house; test: Microcalorimetric assay (ITC) for direct binding; settings: ITC binding stoichiometry, one site binding model, LecBPAO1
Sequence (Q9HYN5 entry or part of it): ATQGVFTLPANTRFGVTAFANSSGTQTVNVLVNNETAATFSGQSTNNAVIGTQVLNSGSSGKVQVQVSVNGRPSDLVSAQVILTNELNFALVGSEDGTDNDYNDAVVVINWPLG
Each item that follows carries a reported N.
Response field accepts a number only; no unit should be typed.

compound | N
CC[C@@]1(O)C(C)OCC(O)C1O (stereo partly shown) [drawing 116] | 1.03
CC1OCC(O)C(O)[C@@H]1O (stereo partly drawn) [drawing 115, 1-deoxy-L-fucose, reference compound] | 1.07
Cc1cc(C)c(S(=O)(=O)NC[C@H]2OC(C)[C@@H](O)C(O)C2O)c(C)c1 (stereo partly shown) [drawing 119] | 0.99
CC1O[C@H](CNS(=O)(=O)c2cccs2)C(O)C(O)[C@@H]1O (stereo partly shown) | 0.92
CCCC[C@@]1(O)C(C)OCC(O)C1O (stereo partly shown) [drawing 117] | 1.02
CC1O[C@H](CNC(=O)/C=C/c2ccccc2)C(O)C(O)[C@@H]1O (stereo partly shown) [drawing 118] | 0.93

Incoming: Param readout= N; system= LecBPAO1 (Pseudomonas aeruginosa); entry= Cc1cc(S(=O)(=O)NC[C@H]2OC(C)[C@@H](O)C(O)C2O)c(C)s1 (stereo partly shown) ; returns value.
Outgoing: 0.98

###

Each item that follows carries a reported log10 of IC50.
molecular target: LecBPA14 (Pseudomonas aeruginosa, UniProt A0A0H2ZE85); assay: biochemical
Give log10 of IC50, with IC50 taken in nM.

compound | testedOn | testReadout | quantitativeReadout
CC1O[C@H](CNS(=O)(=O)c2ccc(Br)s2)C(O)C(O)[C@@H]1O (some centres unmarked) | LecBPA14 (Pseudomonas aeruginosa, UniProt A0A0H2ZE85) | log10 of IC50 | 2.79
Cc1csc(S(=O)(=O)NC[C@H]2OC(C)[C@@H](O)C(O)C2O)c1 (some centres unmarked) | LecBPA14 (Pseudomonas aeruginosa, UniProt A0A0H2ZE85) | log10 of IC50 | 2.49
CC(=O)NCC[C@@]1(O)C(C)OCC(O)C1O (stereo partly drawn) [1-deoxy-4(R)—C-(ethylacetamide) L-fucose] | LecBPA14 (Pseudomonas aeruginosa, UniProt A0A0H2ZE85) | log10 of IC50 | 2.26
CC1OCC(O)C(O)[C@]1(C)O (stereo partly drawn) [1-deoxy-4(S)—C-(methyl) L-fucose] | LecBPA14 (Pseudomonas aeruginosa, UniProt A0A0H2ZE85) | log10 of IC50 | 2.23
CC1OCC(O)C(O)[C@@]1(O)CC#N (stereo partly drawn) [1-deoxy-4(S)—C-(cyanomethyl) L-fucose] | LecBPA14 (Pseudomonas aeruginosa, UniProt A0A0H2ZE85) | log10 of IC50 | 2.76
CC1OCC(O)C(O)[C@@]1(O)c1ccccc1 (stereo partly drawn) [1-deoxy-4(S)—C-(phenyl) L-fucose] | LecBPA14 (Pseudomonas aeruginosa, UniProt A0A0H2ZE85) | log10 of IC50 | 3.17
Cc1cc(C)c(S(=O)(=O)NC[C@H]2OC(C)[C@@H](O)C(O)C2O)c(C)c1 (some centres unmarked) [drawing 93] | LecBPA14 (Pseudomonas aeruginosa, UniProt A0A0H2ZE85) | log10 of IC50 | 2.62
CC(C)C(=O)NCC1(O)C(O)COC(C)[C@H]1O (some centres unmarked) | LecBPA14 (Pseudomonas aeruginosa, UniProt A0A0H2ZE85) | log10 of IC50 | 4.80

Incoming: Which measured log10 of IC50 value corresponds to CC(C)CC[C@@]1(O)C(C)OCC(O)C1O (stereo partly drawn) [1-deoxy-4(S)—C-(isopentyl) L-fucose] ?
Outgoing: 2.65

Incoming: Which measured log10 of IC50 value corresponds to CC1O[C@H](CNC(=O)/C=C/c2ccccc2)C(O)C(O)[C@@H]1O (some centres unmarked) [drawing 111] ?
Outgoing: 3.40

Incoming: Which measured log10 of IC50 value corresponds to CC1O[C@H](CNS(=O)(=O)c2ccsc2)C(O)C(O)[C@@H]1O (some centres unmarked) ?
Outgoing: 2.81

Incoming: Which measured log10 of IC50 value corresponds to CC1O[C@H](CNS(=O)(=O)c2ccn(C)n2)C(O)C(O)[C@@H]1O (some centres unmarked) ?
Outgoing: 2.85

Incoming: Which measured log10 of IC50 value corresponds to Cc1ccc(S(=O)(=O)NC[C@H]2OC(C)[C@@H](O)C(O)C2O)s1 (some centres unmarked) ?
Outgoing: 2.81

Incoming: Which measured log10 of IC50 value corresponds to CCCC[C@@]1(O)C(C)OCC(O)C1O (stereo partly drawn) [drawing 84, 1-deoxy-4(S)—C-(butyl) L-fucose] ?
Outgoing: 2.36

Incoming: Which measured log10 of IC50 value corresponds to CC1OCC(O)C(O)[C@@]1(O)C1CCCCC1 (stereo partly drawn) [1-deoxy-4(S)—C-(cyclohexyl) L-fucose] ?
Outgoing: 2.88

Incoming: Which measured log10 of IC50 value corresponds to CC1OCC(O)C(O)[C@@]1(O)CCNS(C)(=O)=O (some centres unmarked) ?
Outgoing: 2.18
